B1: RSPH3 (parent)
chain: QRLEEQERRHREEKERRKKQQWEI

- Variants of: B1
- protocolDetails: protein stability index of a GFP-peptide fusion (GPS, HEK-293T) (PSI 1-6); higher = more stable;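 also: lentivirally expressed fusions sorted by FACS into six bins by GFP to DsRed ratio, PSI derived from sequencing read proportions per bin multiplied by bin number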
- settings: c terminus: a fixed tail appended
Entries and their measured protein stability index follow.
Please respond with just the number, no unit label.

| mutationString | protein stability index |
| --- | --- |
| R17N | 4.76 |
| E5K | 3.39 |
| I24H | 4.46 |
| R16N | 4.82 |
| R8P | 5.03 |
| Q1W | 4.13 |
| H10Q | 5.04 |
| W22Y | 4.88 |

Reported protein stability index for L3M was 4.81

Reported protein stability index for R2H was 4.53

Reported protein stability index for E5C was 4.38

Reported protein stability index for E4S was 4.84

Reported protein stability index for K19Q was 4.64

Reported protein stability index for K14I was 3.76

Reported protein stability index for L3Q was 4.72

Reported protein stability index for W22A was 5.13
